Origin of the recorded values: patent US20260191981A1

assayedSystem: T1, cynomolgus monkey transferrin receptor 1 (cTfR1) (cynomolgus monkey, UniProt H9EXL1 89-760 (rhesus entry))
T1 construct: The ELISA against cTfR1 is not described in the text
T1 sequence (chain, as listed by the source): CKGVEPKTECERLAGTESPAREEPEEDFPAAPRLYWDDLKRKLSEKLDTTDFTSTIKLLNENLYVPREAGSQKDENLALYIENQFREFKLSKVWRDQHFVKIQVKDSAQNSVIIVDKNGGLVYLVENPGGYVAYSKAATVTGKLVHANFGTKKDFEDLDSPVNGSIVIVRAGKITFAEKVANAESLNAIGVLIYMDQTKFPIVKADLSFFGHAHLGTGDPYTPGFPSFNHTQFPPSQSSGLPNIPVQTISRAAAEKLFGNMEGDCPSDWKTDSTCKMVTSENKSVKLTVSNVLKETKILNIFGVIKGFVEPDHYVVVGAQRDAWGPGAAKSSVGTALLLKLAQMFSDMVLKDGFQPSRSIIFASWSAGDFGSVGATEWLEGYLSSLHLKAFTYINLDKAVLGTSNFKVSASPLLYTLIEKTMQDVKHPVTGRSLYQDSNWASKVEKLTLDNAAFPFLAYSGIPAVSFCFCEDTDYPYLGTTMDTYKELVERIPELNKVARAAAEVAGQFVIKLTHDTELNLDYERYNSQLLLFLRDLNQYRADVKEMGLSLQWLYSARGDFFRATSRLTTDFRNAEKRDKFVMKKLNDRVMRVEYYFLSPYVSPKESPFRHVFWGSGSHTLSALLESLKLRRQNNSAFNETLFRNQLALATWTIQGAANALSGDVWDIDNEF
methodDescription: competition phage ELISA (phage-displayed Fab)
Recorded Kd, one value per entry.
Respond with the bare value in nM.

Below are worked cases with known answers.
binder	Kd, nM
Fab0064 (Fab, V domains shown) VH: EVQLVESGGGLVQPGGSLRLSCATSGYTFTSYWMHWVRQAPGKGLEWVAEINPTNGRVNYIEKFKSRITLSVDKSKSTVYLQMNSLRAEDTAVYYCARGTRAYHYWGQGTLVTVSS VL: DIQLTQSPSSLSASVGDRVTITCRASDGLYSNLAWYQQKPGKAPKLLIYDAKNLASGVPSRFSGSGSGTDYTLTISSLQPEDFATYYCQHFWGTPLTFGQGTKVEIKR	2.02
Fab0066 (Fab, V domains shown) VH: EVQLVESGGGLVQPGGSLRLSCATSGYTFTSYWVHWVRQAPGKGLEWVAEINPTNGRVNYIEKFKSRITLSVDKSKSTVYLQMNSLRAEDTAVYYCARGTRAYHYWGQGTLVTVSS VL: DIQLTQSPSSLSASVGDRVTITCRASDGLYSNLAWYQQKPGKAPKLLIYDAFNLASGVPSRFSGSGSGTDYTLTISSLQPEDFATYYCQHFWGTPLTFGQGTKVEIKR	1.34

// next entry
Prompt: Recorded Kd of Fab0061 (Fab, V domains shown) VH: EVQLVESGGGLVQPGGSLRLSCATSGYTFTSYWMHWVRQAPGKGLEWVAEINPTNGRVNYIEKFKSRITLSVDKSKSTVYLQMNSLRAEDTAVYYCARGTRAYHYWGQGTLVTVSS VL: DIQLTQSPSSLSASVGDRVTITCRASDGLYSNLAWYQQKPGKAPKLLIYDATKLASGVPSRFSGSGSGTDYTLTISSLQPEDFATYYCQHFWGTPLTFGQGTKVEIKR , please.
Completion: 1.75
